Tested on: OVCAR-3
Assay: Cytotoxicity against human OVCAR3 cells after 72 hrs by sulforhodamine B assay
Assay type: functional, cell-based
Details: OVCAR-3, 72 h
measurement-name: IC50 (nM)
Please respond with the number in nM and leave the unit unwritten.

[ask] Kindly indicate its recorded IC50. Item: c1ccc(Nc2cc3ccccc3c3ccccc23)cc1
[reply] 1000
